Source: ChEMBL document CHEMBL1201862

Tested on: DMS-273
Experiment: NCI tumour cell line growth inhibition, 48 h
The source made the active and inactive calls. Cut-off read from the data, not from the text of the source: active = GI50 up to about 1.1 µM and inactive = higher.

[
  {
    "Molecule": "COc1ccccc1C1c2cc3c(cc2OC(O)(CO)C1C(=O)O)OCO3.COc1ccccc1C1c2cc3c(cc2OC2(O)COC(=O)C12)OCO3 (stereo unspecified)",
    "GI50": "> 100 µM (inactive)"
  },
  {
    "Molecule": "O=C1NC(O)n2c(=O)[nH]c(=O)n21 (stereo unspecified)",
    "GI50": "> 100 µM (inactive)"
  },
  {
    "Molecule": "COc1ccc(NC(=O)CC(=O)N2N=C(N(CCC#N)c3cccc(C)c3)CC2c2ccccc2)cc1 (stereo unspecified)",
    "GI50": "> 100 µM (inactive)"
  },
  {
    "Molecule": "CN/N=C(/CCN1CCCC1)CC(c1ccccc1)c1c(O)c2ccccc2oc1=O (stereo unspecified)",
    "GI50": "> 100 µM (inactive)"
  },
  {
    "Molecule": "COc1cc(CNc2nc3ccc(C(F)(F)F)cc3nc2-c2ccccc2)cc(OC)c1OC",
    "GI50": "39 µM (inactive)"
  },
  {
    "Molecule": "COc1ccc(/C=C/c2nnc(S)[nH]2)cc1",
    "GI50": "> 100 µM (inactive)"
  },
  {
    "Molecule": "CCN(CC)c1c(C(=O)/C=C/c2ccc(Cl)cc2)c(-c2ccccc2)nn(C)c1=O",
    "GI50": "1.71 µM (inactive)"
  },
  {
    "Molecule": "O=c1oc2c(O)c(O)c(O)c3c(=O)oc4c(O)c(O)cc1c4c23 [FLAVELLAGIC ACID]",
    "GI50": "85.1 µM (inactive)"
  },
  {
    "Molecule": "c1ccc(COc2cccc3ccc[n+](Cc4ccccc4)c23)cc1",
    "GI50": "3.8 µM (inactive)"
  },
  {
    "Molecule": "N#CC(C#N)=C1CCC2C(=C(C#N)C#N)CCC12 (stereo unspecified)",
    "GI50": "> 100 µM (inactive)"
  },
  {
    "Molecule": "CC(=O)O[C@H]1CCC2[C@@H]3CCC4Nc5c(cnn5-c5ccccc5)C[C@]4(C)C3CC[C@@]21C (stereo partly specified)",
    "GI50": "3.18 µM (inactive)"
  },
  {
    "Molecule": "CCCCCCCCCCCCCCCCCCOCC(C[N+]1(C)CCC(O)CC1)OCC (stereo unspecified)",
    "GI50": "2.28 µM (inactive)"
  },
  {
    "Molecule": "O=C(O[C@H]1[C@@H]2C=CO[C@@H](OC3OC(CO)C(O)C(O)C3O)[C@@H]2[C@@]2(CO)O[C@@H]12)c1ccc(O)c(O)c1 (stereo partly specified)",
    "GI50": "> 100 µM (inactive)"
  },
  {
    "Molecule": "COc1ccc(C2=C(Cl)c3cc(OC)c(OC)cc3C2Cl)cc1OC (stereo unspecified)",
    "GI50": "14.3 µM (inactive)"
  },
  {
    "Molecule": "Cc1ccc2c(c1)CN(C(=O)CCC(=O)OCc1ccccc1)c1ccc(C)cc1CN2C(=O)CCC(=O)OCc1ccccc1",
    "GI50": "> 100 µM (inactive)"
  },
  {
    "Molecule": "C1=CCN(c2ccccc2)CC1",
    "GI50": "> 100 µM (inactive)"
  },
  {
    "Molecule": "NC(=O)CN(CC(N)=O)C(N)=O",
    "GI50": "> 100 µM (inactive)"
  },
  {
    "Molecule": "O=C1CCCc2c(O)ccc(O)c21",
    "GI50": "> 100 µM (inactive)"
  },
  {
    "Molecule": "Cc1nc(Nc2ccccc2)sc1C(=O)CC(=O)C(=O)Nc1c(C(C)C)cccc1C(C)C",
    "GI50": "> 100 µM (inactive)"
  },
  {
    "Molecule": "COc1ccc(C(C#N)NNc2nc(C)cc(O)n2)cc1OC (stereo unspecified)",
    "GI50": "> 100 µM (inactive)"
  },
  {
    "Molecule": "O=c1cc(-c2ccccc2)[nH]c2c(F)ccc(F)c12",
    "GI50": "24.3 µM (inactive)"
  }
]
